pIC50 values by entry
- tested-on: Integrin alpha-5/beta-1 (Homo sapiens, UniProt P05556+P08648)
- Sequence (P05556 21-798 limits assumed): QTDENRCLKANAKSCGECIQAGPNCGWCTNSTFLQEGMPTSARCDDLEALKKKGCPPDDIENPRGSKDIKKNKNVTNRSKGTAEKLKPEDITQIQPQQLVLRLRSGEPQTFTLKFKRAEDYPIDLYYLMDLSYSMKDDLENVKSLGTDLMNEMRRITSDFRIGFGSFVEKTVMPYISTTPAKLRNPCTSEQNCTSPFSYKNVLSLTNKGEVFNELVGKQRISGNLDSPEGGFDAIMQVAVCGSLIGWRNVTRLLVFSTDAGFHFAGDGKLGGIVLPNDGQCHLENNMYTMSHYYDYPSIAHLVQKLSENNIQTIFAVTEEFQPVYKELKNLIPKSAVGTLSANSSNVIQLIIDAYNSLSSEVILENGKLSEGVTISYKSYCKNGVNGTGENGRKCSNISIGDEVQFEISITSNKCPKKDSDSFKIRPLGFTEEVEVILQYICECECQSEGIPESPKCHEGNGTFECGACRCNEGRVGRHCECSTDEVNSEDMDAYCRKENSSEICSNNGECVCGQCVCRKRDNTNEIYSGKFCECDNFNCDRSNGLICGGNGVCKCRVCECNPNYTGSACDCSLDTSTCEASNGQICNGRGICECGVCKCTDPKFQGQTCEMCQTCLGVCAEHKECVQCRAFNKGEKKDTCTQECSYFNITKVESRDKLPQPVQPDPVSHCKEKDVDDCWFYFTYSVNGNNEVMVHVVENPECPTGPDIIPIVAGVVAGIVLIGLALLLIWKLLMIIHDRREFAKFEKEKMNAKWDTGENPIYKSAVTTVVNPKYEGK
- Sequence (P08648 42-894 limits assumed): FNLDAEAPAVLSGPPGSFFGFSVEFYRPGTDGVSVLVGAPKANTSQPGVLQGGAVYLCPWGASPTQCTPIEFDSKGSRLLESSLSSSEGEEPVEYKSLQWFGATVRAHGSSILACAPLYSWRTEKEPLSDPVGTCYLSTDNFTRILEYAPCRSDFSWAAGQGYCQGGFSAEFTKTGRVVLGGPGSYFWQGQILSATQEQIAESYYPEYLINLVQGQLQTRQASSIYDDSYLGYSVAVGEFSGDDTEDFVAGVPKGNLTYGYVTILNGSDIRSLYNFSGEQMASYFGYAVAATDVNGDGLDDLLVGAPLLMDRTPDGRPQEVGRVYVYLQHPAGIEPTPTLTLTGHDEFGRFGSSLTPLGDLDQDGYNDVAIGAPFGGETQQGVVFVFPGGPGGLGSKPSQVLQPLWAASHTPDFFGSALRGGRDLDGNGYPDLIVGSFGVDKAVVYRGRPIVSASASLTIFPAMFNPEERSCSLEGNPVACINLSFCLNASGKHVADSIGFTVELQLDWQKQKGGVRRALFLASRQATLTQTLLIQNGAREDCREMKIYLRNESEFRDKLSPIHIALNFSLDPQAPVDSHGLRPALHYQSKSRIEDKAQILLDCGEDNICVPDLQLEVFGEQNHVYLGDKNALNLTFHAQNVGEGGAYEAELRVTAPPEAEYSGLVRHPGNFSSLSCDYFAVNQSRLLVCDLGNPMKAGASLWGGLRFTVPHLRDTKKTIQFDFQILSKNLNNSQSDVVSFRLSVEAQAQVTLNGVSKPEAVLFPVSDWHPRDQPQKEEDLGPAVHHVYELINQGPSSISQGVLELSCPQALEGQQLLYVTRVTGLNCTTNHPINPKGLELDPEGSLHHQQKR
- Sequence (P08648 895-1049 limits assumed): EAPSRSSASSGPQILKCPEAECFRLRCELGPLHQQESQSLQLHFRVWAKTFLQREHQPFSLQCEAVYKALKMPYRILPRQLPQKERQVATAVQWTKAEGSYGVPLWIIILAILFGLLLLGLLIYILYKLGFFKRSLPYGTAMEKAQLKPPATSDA
- assay-comment: Binding affinity against integrin alpha5-beta1 in enzyme linked immunosorbent assay (ELISA)
pIC50: −log10 of the molar value. Where a SMILES comes first, the peptide text is derived from it. Bridges are numbered along the chain shown (N, C = ends).
measurement-kind: pIC50

molecule=N=C(N)NCCC[C@H](NC(=O)[C@@H]1CSSC2(CCCCC2)[C@H](NC(=O)[C@@H](N)CCCNC(=N)N)C(=O)NCC(=O)N[C@@H](Cc2c[nH]cn2)C(=O)N[C@@H](CCCNC(=N)N)C(=O)NCC(=O)N[C@@H](CC(=O)O)C(=O)N[C@@H](Cc2ccc(Cl)cc2)C(=O)N[C@@H](CCCNC(=N)N)C(=O)N1)C(=O)O readout_number=6.06
molecule="CC[C@H](C)[C@@H]1NC(=O)[C@@H](NC(C)=O)CSSC[C@@H](C(N)=O)NC(=O)[C@H](CCCNC(=N)N)NC(=O)[C@H](Cc2ccc(O)cc2)NC(=O)[C@H](CC(=O)O)NC(=O)CNC(=O)[C@H](CCCNC(=N)N)NC(=O)[C@@H]2CCCN2C1=O (Ac-CIPRGDYRC-NH2; disulfide 1-9)" readout_number=5.35
molecule=CC[C@H](C)[C@@H]1NC(=O)[C@@H](NC(C)=O)CSSC[C@@H](C(N)=O)NC(=O)[C@H](CCCN=C(N)N)NC(=O)[C@H](Cc2ccc([N+](=O)[O-])cc2)NC(=O)[C@H](CC(=O)O)NC(=O)CNC(=O)[C@H](CCCN=C(N)N)NC(=O)[C@@H]2CCCN2C1=O readout_number=5.92
molecule=N=C(N)NCCC[C@H](NC(=O)[C@@H]1CSSC2(CCCCC2)[C@H](NC(=O)[C@@H](N)CCCNC(=N)N)C(=O)NCC(=O)N[C@@H](Cc2c[nH]cn2)C(=O)N[C@@H](CCCNC(=N)N)C(=O)NCC(=O)N[C@@H](CC(=O)O)C(=O)N[C@@H](Cc2ccc(I)cc2)C(=O)N[C@@H](CCCNC(=N)N)C(=O)N1)C(=O)O readout_number=5.38

###

- Species: Homo sapiens
- assay-comment: Inhibition of 10 uM ADP induced platelet aggregation in human platelet rich citreated plasma (PRP)
- Type: functional
pIC50: −log10 of the molar value. *1 amine or outer side, *2 acyl side, *3 side chain or, on linkers, in order; H or OH if unused. Where a SMILES comes first, the peptide text is derived from it. Bridges are numbered along the chain shown (N, C = ends). X1 = O=C(CC1(S[*:2])CCCCC1)[*:1]
pIC50 values by entry
measurement-kind: pIC50

compound=CCCCOc1ccc(C[C@@H]2NC(=O)[C@H](CC(=O)O)NC(=O)CNC(=O)[C@H](CCCNC(=N)N)NC(=O)[C@@H]3CCCN3C(=O)[C@H](CC(N)=O)NC(=O)[C@@H](NC(C)=O)CSSC[C@@H](C(N)=O)NC(=O)[C@H](CCCNC(=N)N)NC2=O)cc1 measurement_kind=pIC50 readout_number=7.00
compound=COc1ccc(C[C@@H]2NC(=O)[C@H](CC(=O)O)NC(=O)CNC(=O)[C@H](CCCN=C(N)N)NC(=O)[C@H](Cc3c[nH]cn3)NC(=O)[C@H](CC(N)=O)NC(=O)[C@@H](NC(=O)[C@@H](N)CCCN=C(N)N)C3(CCCCC3)SSC[C@@H](C(=O)N[C@@H](CCCN=C(N)N)C(=O)O)NC(=O)[C@H](CCCN=C(N)N)NC2=O)cc1 measurement_kind=pIC50 readout_number=6.00
compound="COc1ccc(C[C@@H]2NC(=O)[C@H](CC(=O)O)NC(=O)CNC(=O)[C@H](CCCN=C(N)N)NC(=O)[C@@H]3CCCN3C(=O)[C@H](CC(N)=O)NC(=O)CC3(CCCCC3)SSC[C@@H](C(N)=O)NC(=O)[C@H](CCCN=C(N)N)NC2=O)cc1 (NPRGDY(Me)RC-NH2; linker N-8 via X1)" measurement_kind=pIC50 readout_number=6.77
compound=N=C(N)NCCC[C@H](NC(=O)[C@@H]1CSSC2(CCCCC2)[C@H](NC(=O)[C@@H](N)CCCNC(=N)N)C(=O)NCC(=O)N[C@@H](Cc2c[nH]cn2)C(=O)N[C@@H](CCCNC(=N)N)C(=O)NCC(=O)N[C@@H](CC(=O)O)C(=O)N[C@@H](Cc2ccc(Cl)cc2)C(=O)N[C@@H](CCCNC(=N)N)C(=O)N1)C(=O)O measurement_kind=pIC50 readout_number=6.14
compound=COc1ccc(C[C@@H]2NC(=O)[C@H](CC(=O)O)NC(=O)CNC(=O)[C@H](CCCN=C(N)N)NC(=O)[C@@H]3CCCN3C(=O)[C@H](CC(N)=O)NC(=O)[C@@H](NC(C)=O)C3(CCCCC3)SSC[C@@H](C(N)=O)NC(=O)[C@H](CCCN=C(N)N)NC2=O)cc1 measurement_kind=pIC50 readout_number=6.82
compound="CC[C@H](C)[C@@H]1NC(=O)[C@@H](NC(C)=O)CSSC[C@@H](C(N)=O)NC(=O)[C@H](CCCN=C(N)N)NC(=O)[C@H](Cc2ccc(O)cc2)NC(=O)[C@H](CC(=O)O)NC(=O)CNC(=O)[C@H](CCCN=C(N)N)NC(=O)[C@@H]2CCCN2C1=O (Ac-CIPRGDYRC-NH2; disulfide 1-9)" measurement_kind=pIC50 readout_number=6.48
